Form field: EC50 (one value per entry).
# target: T1, His-tagged rhesus CD40 (rhesus-CD40-his) recombinant protein (rhesus, UniProt F6SNI1 21-193)
# T1 construct: range 21-193; Bought from Acrobiosystems (# CD0-052H7); not shown: His tag
# assay-notes: ELISA, rhesus CD40-his coated
# Protocol: Binding properties of anti-CD40 antibodies was detected by ELISA assay. The CD40 recombinant protein with his-tag was directly used for coating, after the antibody was added, the binding activity of the antibody to the antigen—was detected by adding a secondary antibody (HRP-conjugated anti-antibody Fc antibody) and HRP substrate TMB. A 96-well microtiter plate was coated with 100 μl/well of human or rhesus CD40-his protein at a concentration of 0.5 μg/ml and incubated overnight at 4° C. […]
Enter your answer as a number in ng/mL; do not include the unit.

1. mouse hybridoma anti-human CD40 antibody 14C10 (antibody, V domains shown, Murine hybridoma antibody) VH: QVQVQQSGAELVRPGTSVKVSCKASGYAFTNYLIEWVKQRPGQGLEWIGVINPEFGGTNYNEKFKGKATLTADKSSSTAYMQLSSLTSEDSAVYFCARGGGGFTYWGQGTLVTVSA VL: HIQMTQTTSSLSASLGDRVTISCRASQDISSHLNWYQQKPDGTVKLLISYTSRLHSGVPSRFSGSGSGADYSLTISNLEQEDIATYFCQQGNTLPWTFGGGTKLEIK: 9.49
2. humanized anti-CD40 antibody hu2H6 (H1b heavy chain and L1c light chain) (antibody, human IgG1, kappa, V domains shown, the suffix -11 is not explained; Human IgG1/kappa; also called Hu2H6-11) VH: QVQLVQSGAEVKKPGSSVKVSCKASGYAFSDYLIEWVRQAPGQGLEWMGVINPGSGGSNYNEKIKDRVTLTADKSTSTAYMELSSLRSEDTAVYYCARGGGGFTYWGQGTLVTVSS VL: DIQLTQSPSSLSASVGDRVTITCRASQDISNYLNWYQQKPGKTIKLLLNFASRLHSGVPSRFSGSGSGTDFTFTISSLQPEDIATYYCQQGSTLPWTFGGGTKVEIKR: 2.95

Item: mouse hybridoma anti-human CD40 antibody 2H6 (antibody, V domains shown, Murine hybridoma antibody; also called mouse mAb 2H6) VH: QVQLQQSGAELVRPGTSVKVSCKASGYAFSDYLIEWAKQRPGQGLEWIGVINPGSGGSNYNEKIKDRATLTADKSSSTAYMQLSSLTSEDSAVYFCARGGGGFTYWGQGTLVTVSA VL: EIQLTQTTSSLSASLGDRVTISCRASQDISNYLNWYQQKPDGTIKLLLNFASRLHSGVPSRFSGSGSGTDFFLTISNLEQDDIATYFCQQGSTLPWTFGGGTKLEIK | EC50: 7.21

Reported EC50 ( mouse hybridoma anti-human CD40 antibody 38B4 (antibody, V domains shown, Murine hybridoma antibody) VH: QVRLKQSGAELVRPGASVKVSCKASGYTFTDYYINWVKQRPGQGLEWIAGIYPGTGNTYYNEKFKGKATLTAERSSSTAYMQLTSLTSEDSAVYFCTRRGLPSLCFDYWGQGTTLTVSS VL: DFQMTQTTSSLSASLGDRVTISCSASQGISNYLNWYQQKPDGTVKLLIYYTSSLHSGVPSRFSGSGSGTDYSLTISNLEPEDIATYYCQQYSKLPPTFGGGTKLEIK ) = 11.8

Measured EC50, mouse hybridoma anti-human CD40 antibody 9E5 (antibody, V domains shown, Murine hybridoma antibody; also called mouse 9E5) VH: QVQLQQPGADLVKPGASVKMSCKASGYILTTYWITWVKQRPGQGLEWIGDIHPGSGSTKYNEKFKSKATLTVDTSSSTAYMQLTRLSSEDSAVYYCARRDYWGQGTTLTVSS VL: DVLMTQSPLSLPVSLGDQASISCRSSQNIVNSQGNTYLEWYLQKPGESPKLLIYKVTNRFSGVPDRFSGSGSGTDFTLKISRVEAEDLGVYYCFQASLVPWTFGGGTKLEIK : 6.7

For record humanized anti-CD40 antibody hu9E5 (H1c heavy chain and L1a light chain) (antibody, human IgG1, kappa, V domains shown, the suffix -25 is not explained; Human IgG1/kappa; also called Hu9E5-25) VH: QVQLVQSGAEVKKPGASVKVSCKASGYILTTYWITWVRQAPGQGLEWMGDIHPGSGSTKYNEKFKSRVTLTVDTSISTAYMELSRLRSEDTAVYYCARRDYWGQGTTVTVSS VL: DIVMTQSPLSLPVTPGEPASISCRSSQNIVNSQGNTYLEWYLQKPGQSPQLLIYKVTNRFSGVPDRFSGSGSGTDFTLKISRVEAEDVGVYYCFQASLVPWTFGGGTKVEIKR the listed EC50 is 1.66

Lab book: EC50 of mouse hybridoma anti-human CD40 antibody 1D9 (antibody, V domains shown, Murine hybridoma antibody) VH: QVRLQQSGAELVRPGTSMRVSCKASGYAFTNYLINWVKQRPGQGLEWIGILNPGSGGTNYNENFKDKATLTADKSSNTAYMQLSSLTSEDSAVYFCIRGSPGFAYWGQGTLVTVSA VL: DIQMTQTTSSLSASLGDRVTISCRASQDINIYLNWYQQKPDGTVKLLIYSTSGLHSGVPSRFNGSGSGTDYSLTISNLEQEDIATYFCQQGYTLPYTFGGGTKLEIK noted as 9.81
